# experimental-details: Secondary Assay for Inhibitors of Human Cdc-like kinase 4 (Clk4): HEK-293 Cell Viability Assay;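 note: cytotoxic hits lower the ATP light signal so activity reflects loss of viability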
# run-parameters: HEK-293 viability, ATP luminescence (CellTiter-Glo), 24/48 h; series mostly up to 46.1 µM
Results filed as inconclusive are left out. Activity calls are given as the source filed them. Calls come from the whole dose curve; as a rule, active = well fitted curve in the direction sought with a large enough effect; inconclusive = small, poorly fitted or top-dose-only effect, or another doubt; inactive = no such curve, though single readings can be large or run the other way.

| test-smiles | outcome |
| --- | --- |
| CC(C)(C)CNc1ncnc2ccc(-c3ccc4c(c3)OCO4)cc12 | inactive |
| CN(Cc1cncn1C)c1ncnc2ccc(-c3ccc4c(c3)OCO4)cc12 | inactive |
| Cc1csc(CNc2ncnc3cc(-c4ccc5c(c4)OCO5)ccc23)n1 | inactive |
| c1nc(NCC2CCCCC2)c2cc(-c3ccc4c(c3)OCO4)ccc2n1 | inactive |
| Cc1cccc(CNc2ncnc3ccc(-c4ccoc4)cc23)c1 | inactive |
| COc1cccc(-c2ccc3ncnc(NCc4cccs4)c3c2)c1 | inactive |
| Fc1cccc(CNc2ncnc3ccc(-c4ccc5c(c4)OCO5)cc23)c1 | inactive |
| c1nc(NCc2ccc3c(c2)OCO3)c2cc(-c3ccc4c(c3)OCCO4)ccc2n1 | inactive |
| Fc1cccc(CNc2ncnc3ccc(-c4cccc(Cl)c4)cc23)c1 | inactive |
| Cc1csc(CNc2ncnc3ccc(-c4cccc(Cl)c4)cc23)c1 | inactive |
| CCN(CCc1cn(C)cn1)c1ncnc2ccc(-c3ccc4c(c3)OCO4)cc12 | inactive |
| c1cncc(CNc2ncnc3ccc(-c4ccc5c(c4)OCCO5)cc23)c1 | inactive |
| COc1cccc(-c2ccc3ncnc(NCc4cc(C)cs4)c3c2)c1 | inactive |
| Cc1nc(CNc2ncnc3ccc(-c4ccoc4)cc23)cs1 | inactive |
| CS(=O)(=O)CCNCc1ccc(-c2ccc3ncnc(Nc4ccc(OCc5cccc(F)c5)c(Cl)c4)c3c2)o1 | inactive |
| Cc1csc(CNc2ncnc3ccc(-c4cccnc4)cc23)c1 | inactive |
| CN(C)CCNc1ncnc2ccc(-c3ccc4c(c3)OCO4)cc12 | inactive |
| Cc1ccc(CNc2ncnc3ccc(-c4ccoc4C)cc23)o1 | inactive |
| Clc1ccccc1-c1ccc2ncnc(NCc3cccs3)c2c1 | inactive |
| CCOC(=O)c1ccoc1-c1ccc2ncnc(NCc3ccc(C)o3)c2c1 | inactive |
| Cc1csc(CNc2ncnc3ccc(-c4ccc5c(c4)OCO5)cc23)n1 | inactive |
| c1nc(N2CCOCC2)c2cc(-c3ccc4c(c3)OCO4)ccc2n1 | inactive |
| Cn1ccc2cc(-c3ccc4ncnc(NCc5cccs5)c4c3)ccc21 | inactive |

====

# experimental-details: Secondary Assay for Inhibitors of Human Cdc-like kinase 4 (Clk4): HEK-293 Cell Viability Assay;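 note: cytotoxic hits lower the ATP light signal so activity reflects loss of viability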
# run-parameters: HEK-293 viability, ATP luminescence (CellTiter-Glo), 24/48 h; series mostly up to 46.1 µM
Results filed as inconclusive are left out. Active and inactive are the calls of the source. Calls follow the shape of the dose curve; as a rule, active = well fitted curve in the direction sought with a large enough effect; inconclusive = small, poorly fitted or top-dose-only effect, or another doubt; inactive = no such curve, though single readings can be large or run the other way.
Classes used: yes for active, no for inactive

| test-smiles | category-label |
| --- | --- |
| Cn1cncc1CNc1ncnc2ccc(-c3ccc4c(c3)OCO4)cc12 | no |
| c1nc(NCc2ccc3c(c2)OCO3)c2cc(-c3ccoc3)ccc2n1 | no |
| Cc1ccc(CN(C)c2ncnc3ccc(-c4ccc(CO)o4)cc23)o1 | yes |
| C[C@@H](O)c1ccc(-c2ccc3ncnc(NCc4cccs4)c3c2)o1 | no |
| c1nc(NCCc2cnc[nH]2)c2ccc(-c3ccc4c(c3)OCO4)cc2n1 | no |
| Cc1cccc(CNc2ncnc3ccc(-c4ccc5c(c4)OCCO5)cc23)c1 | no |

====

# experimental-details: Secondary Assay for Inhibitors of Human Cdc-like kinase 4 (Clk4): HEK-293 Cell Viability Assay;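 note: cytotoxic hits lower the ATP light signal so activity reflects loss of viability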
# run-parameters: HEK-293 viability, ATP luminescence (CellTiter-Glo), 24/48 h; series mostly up to 46.1 µM
Results filed as inconclusive are left out. Calls of active or inactive are those of the source. Calls follow the shape of the dose curve; as a rule, active = well fitted curve in the direction sought with a large enough effect; inconclusive = small, poorly fitted or top-dose-only effect, or another doubt; inactive = no such curve, though single readings can be large or run the other way.
Classes used: active, inactive

| molecule | category-label |
| --- | --- |
| c1coc(CCNc2ncnc3ccc(-c4ccc5c(c4)OCO5)cc23)c1 | inactive |
| c1coc(CNc2ncnc3ccc(-c4ccc5c(c4)OCO5)cc23)c1 | inactive |
| CCn1cnc(CCN(C)c2ncnc3ccc(-c4ccc5c(c4)OCO5)cc23)c1 | inactive |
| COc1cccc(-c2ccc3ncnc(NCc4cccc(F)c4)c3c2)c1 | inactive |
| Cc1cccc(-c2ccc3ncnc(NCc4cc(C)cs4)c3c2)c1 | inactive |
| CN(CC1CCCCO1)c1ncnc2ccc(-c3ccc4c(c3)OCO4)cc12 (configuration not stated) | inactive |
| O=C(O)c1ccc(-c2ccc3ncnc(NCCc4cnc[nH]4)c3c2)o1 | inactive |
| c1csc(CCNc2ncnc3ccc(-c4ccc5c(c4)OCO5)cc23)c1 | inactive |
| Cc1csc(CNc2ncnc3ccc(-c4ccoc4)cc23)c1 | inactive |
| CCN(Cc1cccs1)c1ncnc2ccc(-c3ccc4c(c3)OCO4)cc12 | inactive |
| Cc1ccc(CNc2ncnc3ccc(-c4ccc(C(=O)O)o4)cc23)o1 | inactive |
| c1cncc(CNc2ncnc3ccc(-c4cccnc4)cc23)c1 | inactive |
| c1csc(CNc2ncnc3cc(-c4ccc5c(c4)OCO5)ccc23)c1 | inactive |
| Cc1cccc(CNc2ncnc3ccc(-c4cccc(Cl)c4)cc23)c1 | inactive |
| Cc1occc1-c1ccc2ncnc(NCc3ncc[nH]3)c2c1 | inactive |
| CCCN(Cc1cccs1)c1ncnc2ccc(-c3ccc4c(c3)OCO4)cc12 | inactive |
| Cn1cnc(CCNc2ncnc3ccc(-c4ccc5c(c4)OCO5)cc23)c1 | inactive |
| c1nc(NCc2ccoc2)c2cc(-c3ccc4c(c3)OCO4)ccc2n1 | inactive |
| COc1cccc(Nc2ncc3nc(-c4cn(C)c5ccccc45)c(=O)n(CCC#N)c3n2)c1 | active |
| c1nc(NCCc2cnc[nH]2)c2cc(-c3ccoc3)ccc2n1 | inactive |
| Cc1nc(C)c(-c2ccc3ncnc(NCCc4cnc[nH]4)c3c2)s1 | inactive |
| COc1cccc(-c2ccc3ncnc(NCc4cccc(C)c4)c3c2)c1 | inactive |
